# target: Human Calpain 2/NS1 (Homo sapiens, UniProt P17655)
# Sequence (P17655 1-700): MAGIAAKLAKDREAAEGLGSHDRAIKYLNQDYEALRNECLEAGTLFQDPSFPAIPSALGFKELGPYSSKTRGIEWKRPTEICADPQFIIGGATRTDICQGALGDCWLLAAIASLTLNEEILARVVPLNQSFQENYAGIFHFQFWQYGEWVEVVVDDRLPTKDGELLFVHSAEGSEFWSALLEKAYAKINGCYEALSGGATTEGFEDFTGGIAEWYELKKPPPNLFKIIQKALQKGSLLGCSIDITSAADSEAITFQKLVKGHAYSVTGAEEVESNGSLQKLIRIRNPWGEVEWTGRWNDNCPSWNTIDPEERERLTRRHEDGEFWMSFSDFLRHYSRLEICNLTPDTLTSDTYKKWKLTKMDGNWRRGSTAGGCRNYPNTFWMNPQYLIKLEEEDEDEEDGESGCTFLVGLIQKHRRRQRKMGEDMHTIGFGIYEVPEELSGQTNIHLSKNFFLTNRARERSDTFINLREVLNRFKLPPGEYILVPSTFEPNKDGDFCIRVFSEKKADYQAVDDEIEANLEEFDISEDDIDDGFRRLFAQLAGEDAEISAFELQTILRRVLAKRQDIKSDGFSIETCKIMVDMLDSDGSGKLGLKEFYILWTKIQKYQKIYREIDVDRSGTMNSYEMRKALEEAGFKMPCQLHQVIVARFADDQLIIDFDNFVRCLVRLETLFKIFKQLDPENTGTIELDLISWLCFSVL
# Sequence (P04632 1-268 partner): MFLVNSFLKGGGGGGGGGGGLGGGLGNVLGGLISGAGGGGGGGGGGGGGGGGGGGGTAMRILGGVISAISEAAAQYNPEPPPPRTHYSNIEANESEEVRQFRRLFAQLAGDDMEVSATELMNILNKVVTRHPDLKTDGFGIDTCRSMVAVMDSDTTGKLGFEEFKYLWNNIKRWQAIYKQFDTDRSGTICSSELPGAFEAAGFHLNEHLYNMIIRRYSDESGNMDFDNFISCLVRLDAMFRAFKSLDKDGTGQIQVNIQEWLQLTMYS
# experimentSummary: Biochemical inhibition of calpain 2, continuous fluorescence (FRET substrate) assay
# appliedConditions: mean, read-out: Human Calpain 2/NS1 IC50 (nM)_MEAN
assayEndpoint: IC50

Qu. Input CN(C)CCCNC(=O)C(=O)C1CCCCOCCOCc2ccccc2C(=O)N1 (centres unmarked) , output reported IC50.
Ans. > 10000 nM

Qu. Input COc1cc(CNC(=O)C(=O)C2CCCCOCCOCc3ccccc3C(=O)N2)cc(OC)c1 (centres unmarked) , output reported IC50.
Ans. 3000 to 10000 nM

Qu. Input CN(C)CCNC(=O)C(=O)C1CCCCOCCOCc2ccccc2C(=O)N1 (centres unmarked) , output reported IC50.
Ans. > 10000 nM

Qu. Input `CCOC(=O)CNC(=O)C(=O)[C@@H]1CCCCOCCOCc2ccccc2C(=O)N1` , output reported IC50.
Ans. < 3000 nM

Qu. Input `NC(=O)C(=O)[C@@H]1CCCCCOc2ccc(F)c(c2)-c2ccccc2C(=O)N1` , output reported IC50.
Ans. < 3000 nM

Qu. Input `O=C[C@@H]1CCCCOCCn2ccc3cccc(c32)C(=O)N1` , output reported IC50.
Ans. < 3000 nM

Qu. Input `O=C[C@@H]1Cc2cccc(c2)CCCCOc2cccc(c2)-c2ncccc2C(=O)N1` , output reported IC50.
Ans. < 3000 nM

Qu. Input O=C(NCc1cccc(F)c1)C(=O)C1CCCCOCCOCc2ccccc2C(=O)N1 (centres unmarked) , output reported IC50.
Ans. 3000 to 10000 nM

Qu. Input `CCNC(=O)C(=O)[C@@H]1CC=CCCCCCc2ccccc2C(=O)N1` , output reported IC50.
Ans. > 10000 nM

Qu. Input `O=C(NCCc1ccc(Cl)cc1)C(=O)[C@@H]1C/C=C\COCCOCc2ccccc2C(=O)N1` , output reported IC50.
Ans. 3000 to 10000 nM

Qu. Input NS(=O)(=O)c1ccc(CNC(=O)C(=O)C2CCCCOCCOCc3ccccc3C(=O)N2)cc1 (centres unmarked) , output reported IC50.
Ans. 3000 to 10000 nM

Qu. Input `O=C[C@@H]1Cc2ccc(cc2)OC/C=C/COc2ccc3c(cnn3-c3ncccc3C(=O)N1)c2` , output reported IC50.
Ans. < 3000 nM

Qu. Input `O=C(NCc1ccccc1)C(=O)[C@@H]1CC=CCCCCOc2ccccc2C(=O)N1` , output reported IC50.
Ans. > 10000 nM

Qu. Input `CCNC(=O)C(=O)[C@@H]1CCCCCCCCCc2ccccc2C(=O)N1` , output reported IC50.
Ans. > 10000 nM

Qu. Input `NC(=O)C(=O)[C@@H]1CCCCCOc2cccc(c2)-c2n[nH]cc2C(=O)N1` , output reported IC50.
Ans. < 3000 nM

Qu. Input `O=C(NC1CC1)C(=O)[C@@H]1Cc2ccc(cc2)OC/C=C/COc2ccc3c(cnn3-c3ncccc3C(=O)N1)c2` , output reported IC50.
Ans. < 3000 nM

Qu. Input `CCNC(=O)C(=O)[C@@H]1Cc2ccc(cc2)OCCCCOc2cccc(c2)-c2ccn(n2)-c2ncccc2C(=O)N1` , output reported IC50.
Ans. < 3000 nM

---

# target: Human Calpain 2/NS1 (Homo sapiens, UniProt P17655)
# experimentSummary: Biochemical inhibition of calpain 2, continuous fluorescence (FRET substrate) assay
# appliedConditions: mean, read-out: Human Calpain 2/NS1 IC50 (nM)_MEAN
So I've got a bunch of compounds here, and I need their IC50 values.

Qu. Input O=C(NCc1cccc(OC(F)(F)F)c1)C(=O)C1CCCCOCCOCc2ccccc2C(=O)N1 (stereo not drawn) , output reported IC50.
Ans. > 10000 nM

Qu. Input `O=C[C@@H]1Cc2cccc(c2)CCCOCc2ccccc2C(=O)N1` , output reported IC50.
Ans. < 3000 nM

Qu. Input O=C(NCCCN1CCOCC1)C(=O)C1CCCCOCCOCc2ccccc2C(=O)N1 (stereo not drawn) , output reported IC50.
Ans. > 10000 nM

Qu. Input COc1ccc(CNC(=O)C(=O)C2CCCCOCCOCc3ccccc3C(=O)N2)c(OC)c1 (stereo not drawn) , output reported IC50.
Ans. 3000 to 10000 nM

Qu. Input Cc1cc(C)cc(CNC(=O)C(=O)C2CCCCOCCOCc3ccccc3C(=O)N2)c1 (stereo not drawn) , output reported IC50.
Ans. 3000 to 10000 nM

Qu. Input `O=C[C@@H]1CC=CCOCCCCOCc2ccccc2C(=O)N1` , output reported IC50.
Ans. < 3000 nM

Qu. Input `O=C(NC1CC1)C(=O)[C@@H]1Cc2ccc(cc2)OCCCCOc2ccc3c(cnn3-c3ncccc3C(=O)N1)c2` , output reported IC50.
Ans. < 3000 nM

Qu. Input COCCOCCOCCNC(=O)C(=O)C1CCCCOCCOCc2ccccc2C(=O)N1 (stereo not drawn) , output reported IC50.
Ans. > 10000 nM

Qu. Input `O=C[C@@H]1CC=CCOCCn2ccc3cccc(c32)C(=O)N1` , output reported IC50.
Ans. < 3000 nM

Qu. Input `Cc1cccc(C)c1NC(=O)C(=O)[C@@H]1CCCCOCCOCc2ccccc2C(=O)N1` , output reported IC50.
Ans. > 10000 nM

Qu. Input O=C[C@@H]1CC=CCCCCOc2ccccc2C(=O)N1 (mixture of isomers) , output reported IC50.
Ans. 3000 to 10000 nM

Qu. Input `O=C[C@@H]1CCCCCOc2ccnc(n2)-c2ccccc2C(=O)N1` , output reported IC50.
Ans. < 3000 nM

Qu. Input `O=C[C@@H]1CC=CCCCOCc2ccccc2C(=O)N1` , output reported IC50.
Ans. < 3000 nM

Qu. Input Cc1cccc(Cl)c1CNC(=O)C(=O)C1CCCCOCCOCc2ccccc2C(=O)N1 (stereo not drawn) , output reported IC50.
Ans. > 10000 nM

Qu. Input `CCCCNC(=O)C(=O)[C@@H]1CCCCOCCOCc2ccccc2C(=O)N1` , output reported IC50.
Ans. > 10000 nM

Qu. Input `O=C[C@@H]1Cc2ccc(cc2)CCCCc2ccc3nn(cc3c2)-c2ncccc2C(=O)N1` , output reported IC50.
Ans. < 3000 nM

Qu. Input O=C(NCc1ccccc1)C(=O)C1CCCCOCCOCc2ccccc2C(=O)N1 (stereo not drawn) , output reported IC50.
Ans. > 10000 nM

Qu. Input `O=C[C@@H]1CCCCCCCCCCc2ccccc2C(=O)N1` , output reported IC50.
Ans. < 3000 nM

---

# target: Human Calpain 2/NS1 (Homo sapiens)
# experimentSummary: Biochemical inhibition of calpain 2, continuous fluorescence (FRET substrate) assay
# appliedConditions: mean, read-out: Human Calpain 2/NS1 IC50 (nM)_MEAN
So I've got a bunch of compounds here, and I need their IC50 values.

Qu. Input O=C[C@@H]1Cc2ccc(cc2)OCCCCOc2ccc3c(cnn3-c3ncccc3C(=O)N1)c2 [Compound 67] , output reported IC50.
Ans. < 3000 nM

Qu. Input CCNC(=O)C(=O)[C@@H]1C/C=C/CCCCCCCc2ccccc2C(=O)N1 [Compound 33] , output reported IC50.
Ans. > 10000 nM

Qu. Input O=C[C@@H]1Cc2ccccc2CCCOCCCn2cncc2C(=O)N1 [Compound 22] , output reported IC50.
Ans. 3000 to 10000 nM

Qu. Input NC(=O)C(=O)[C@@H]1CCCCCCOc2ccnc(c2)-c2ccccc2C(=O)N1 [Compound 132] , output reported IC50.
Ans. < 3000 nM

Qu. Input O=C[C@@H]1CC=CCCOc2cccc(c2)-c2ncccc2C(=O)N1 [Compound 37] , output reported IC50.
Ans. < 3000 nM

Qu. Input Cn1cc2c(n1)-c1cccc(c1)OCCCCC[C@@H](C(=O)C(N)=O)NC2=O [Compound 142] , output reported IC50.
Ans. > 10000 nM

Qu. Input O=C[C@@H]1CC=CCCOc2nccc(n2)-c2ccccc2C(=O)N1 [Compound 40] , output reported IC50.
Ans. < 3000 nM

Qu. Input C#CCNC(=O)C(=O)C1CCCCOCCOCc2ccccc2C(=O)N1 (stereo not drawn) [Compound 85] , output reported IC50.
Ans. > 10000 nM

Qu. Input NC(=O)C(=O)[C@@H]1C/C=C\CCOc2ccnc(n2)-c2ccccc2C(=O)N1 [Compound 138] , output reported IC50.
Ans. < 3000 nM
